B1: POU domain, class 2, transcription factor 2, residues 200 to 269; numbered along this chain, P09086 (parent)
chain: LEELEQFARTFKQRRIKLGFTQGDVGLAMGKLYGNDFSQTTISRFEALNLSFKNMCKLKPLLEKWLNDAE

variants of: B1; test: abundance fitness (aPCA) (normalised: wild type 0, dead -1); higher = more abundant; growth selection in yeast, the domain comes from the species named; conditions: Homo sapiens
For each of the variants below, state its abundance fitness.
Give bare numbers.

// below: answered variants
{"sequence-variant": "T41G", "abundance fitness": -0.193}
{"sequence-variant": "F52V", "abundance fitness": -0.035}
{"sequence-variant": "L61K", "abundance fitness": 0.032}

Each of the following entries comes with a recorded value; kindly state abundance fitness for each.
1. D24F
2. C56K
3. L58T

1: -0.158; 2: 0.015; 3: -0.049

Each of the following entries comes with a recorded value; kindly state abundance fitness for each.
1. F52H
2. Y33F
3. K64L

-0.2
-0.062
-0.049

Each of the following entries comes with a recorded value; kindly state abundance fitness for each.
1. P60Q
2. G26F

1: -0.103; 2: -0.18
